For each record, write down the corresponding pIC50.
Target: PRMT5 (Homo sapiens)
Construct: purchased Viva (custom protein)
Sequence (O14744 whole entry): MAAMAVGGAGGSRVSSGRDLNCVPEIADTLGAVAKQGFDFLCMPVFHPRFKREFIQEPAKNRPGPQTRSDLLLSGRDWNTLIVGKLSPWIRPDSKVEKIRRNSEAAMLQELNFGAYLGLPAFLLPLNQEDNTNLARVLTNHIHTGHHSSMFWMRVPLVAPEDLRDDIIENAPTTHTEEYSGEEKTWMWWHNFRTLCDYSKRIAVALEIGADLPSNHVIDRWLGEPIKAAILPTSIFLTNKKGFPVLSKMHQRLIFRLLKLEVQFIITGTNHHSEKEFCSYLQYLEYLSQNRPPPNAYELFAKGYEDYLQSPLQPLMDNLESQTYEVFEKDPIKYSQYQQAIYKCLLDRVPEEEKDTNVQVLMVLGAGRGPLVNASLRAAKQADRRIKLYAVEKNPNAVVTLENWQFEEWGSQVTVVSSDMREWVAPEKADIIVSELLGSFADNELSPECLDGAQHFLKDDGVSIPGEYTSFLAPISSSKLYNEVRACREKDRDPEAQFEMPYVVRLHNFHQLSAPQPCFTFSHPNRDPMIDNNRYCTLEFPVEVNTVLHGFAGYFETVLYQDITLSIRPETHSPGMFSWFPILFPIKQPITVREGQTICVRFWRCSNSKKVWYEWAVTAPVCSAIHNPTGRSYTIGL
Sequence (Q9BQA1 whole entry partner): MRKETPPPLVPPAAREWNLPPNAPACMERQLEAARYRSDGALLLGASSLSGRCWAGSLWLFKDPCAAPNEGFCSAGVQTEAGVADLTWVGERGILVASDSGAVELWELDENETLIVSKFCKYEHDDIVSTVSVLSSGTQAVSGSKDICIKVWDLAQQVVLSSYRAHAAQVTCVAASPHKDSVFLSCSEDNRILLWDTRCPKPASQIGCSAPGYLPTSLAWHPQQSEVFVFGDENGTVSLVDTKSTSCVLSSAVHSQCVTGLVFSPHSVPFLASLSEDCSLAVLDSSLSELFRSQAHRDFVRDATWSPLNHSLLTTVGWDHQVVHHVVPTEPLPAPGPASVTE
Assay: PRMT5 biochemical IC50 assay with no cofactor
Settings: PRMT5, no cofactor; read-out: No Cofactor/rel IC50
pIC50: −log10 of the molar value.

# count of solved cases: 8
# Compound, Reported result
measured = [
    ("C[C@H]1CC[C@H](c2ccc3sc(N)nc3c2)N(C(=O)C(=O)Nc2cncc(C(N)=O)c2)C1 (single isomer, unassigned)", "6.30 to 7.30"),
    ("Cc1cc(NC(=O)C(=O)N2C[C@@H](C)CC[C@@H]2c2ccc(N)nc2)cnc1N (single isomer, unassigned)", "< 6.30"),
    ("Cc1ccc([C@@H]2CC[C@@H](C)CN2C(=O)C(=O)Nc2cnc(N)c(C)c2)nc1 (racemic)", "6.30 to 7.30"),
    ("Cc1cc(NC(=O)C(=O)N2C[C@@H](C)CC[C@@H]2c2ccc3sc([C@@H]4CCN(C)C(C)(C)C4)nc3c2)cnc1C", "> 7.30"),
    ("CCc1cc(NC(=O)C(=O)N2C[C@@H](C)CC[C@@H]2c2ccc3sc(-c4cccnc4)nc3c2)cnc1N", "> 7.30"),
    ("CCc1cc(NC(=O)C(=O)N2C[C@H](C)CC[C@H]2c2ccc(N3CCN(CC)CC3)cc2)cnc1N (single isomer, unassigned)", "> 7.30"),
    ("C[C@H]1CC[C@H](c2ccc3[nH]ncc3n2)N(C(=O)C(=O)Nc2cncc(C(N)=O)c2)C1 (single isomer, unassigned)", "> 7.30"),
    ("Cc1cc(NC(=O)C(=O)N2C[C@@H](C)CC[C@@H]2c2cccc3[nH]cnc23)cnc1N (single isomer, unassigned)", "< 6.30"),
]

Batch lookup, pIC50 per entry.
1. C[C@@H]1CC[C@@H](c2cc(F)c3[nH]ncc3c2)N(C(=O)C(=O)Nc2cncc(C(N)=O)c2)C1 (single isomer, unassigned)
2. Cc1cc(NC(=O)C(=O)N2C[C@H](C)CC[C@H]2c2ccc(-c3nccs3)cc2)cnc1N (single isomer, unassigned)
3. C[C@H]1CC[C@H](C2CCC(F)(F)CC2)N(C(=O)C(=O)Nc2cncc(C(N)=O)c2)C1 (single isomer, unassigned)
4. C[C@H]1CC[C@H](c2cc3[nH]ncc3s2)N(C(=O)C(=O)Nc2cncc(C(N)=O)c2)C1 (single isomer, unassigned)

> 7.30
< 6.30
< 6.30
6.30 to 7.30

###

System: HAP1 MTAP-deleted cell line
Assay: Viability assay, MTAP-deleted cell line
Format: cell-based
Details: Homo sapiens, HAP1, read-out: HAP1 MTAP deleted viability
pIC50: −log10 of the molar value.
Quantity kind: pIC50

# count of solved cases: 5
# Molecule, Reported result
data = [
    ("CCc1cc(NC(=O)C(=O)N2C[C@@H](C)CC[C@@H]2c2ccc3scnc3c2)cnc1N (stereo in doubt)", "> 6.00"),
    ("Cc1cc(NC(=O)C(=O)N2C[C@@H](C)CC[C@@H]2c2ccc(C(F)F)cc2)cnc1N (single isomer, unassigned)", "< 5.00"),
    ("Cc1cc(NC(=O)C(=O)N2C[C@@H](C)CC[C@@H]2c2ccc(O)cc2)cnc1N (single isomer, unassigned)", "< 5.00"),
    ("Cc1cc(NC(=O)C(=O)N2C[C@H](C)CC[C@H]2c2ccc3[nH]ncc3c2)cnc1N (single isomer, unassigned)", "> 6.00"),
    ("[2H]c1nc2cc([C@H]3CC[C@H](C)CN3C(=O)C(=O)Nc3cnc(N)c(C)c3)ccc2s1", "> 6.00"),
]

Consider the record given below.
# return recorded pIC50 for input Cc1cncc(NC(=O)C(=O)N2C(C)C(C)CC[C@H]2c2ccccc2)c1 (single isomer, unassigned)
< 5.00
